Assign composite z-score to each entry below.
- assay.notes: COS7 lysate on small-molecule microarray, probe aHis, 635 nm (AID 1123);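 note: z-score combines 667nm fluorescence intensity with signal-to-noise per printed compound spot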
- measurement.setup: COS7 cell lysate, fluorescence, higher = more signal
Answer with a bare number; do not write a unit.

Could you tell me which composite z-score is on file for "C=CCOC(=O)[C@H]1[C@@H]2C(=O)O[C@@H](c3ccccc3)[C@@H](c3ccccc3)N2[C@@H](c2ccc(OCCOC(=O)[C@@H]3C[C@@H]4C(=O)N[C@@H](Cc5ccccc5)C(=O)N4[C@@H]3c3ccc(O)cc3)cc2)[C@]12C(=O)Nc1ccc(I)cc12" ?
1.33

Which composite z-score is reported for this molecule? "C=C(CCCC)C(=O)CC[C@H](OC(=O)c1ccccc1-c1ccccc1C(=O)O)c1cccc(OCCO)c1"
0.729

// returns reported composite z-score for input "COC(=O)[C@@]1(Cc2ccc(F)cc2)[C@H]2c3cc(C(=O)N4CCCC4)n(CCc4c[nH]c5cc(F)ccc45)c3C[C@H]2CN1C(=O)c1ccccc1"
2.76

Report composite z-score for COc1ccc(C(O)C2C=CC3C(=O)N(c4ccccc4)C(=O)C3N2Nc2ccccc2F)c2ccccc12 (stereo unspecified) please.
2.23

Form field: reported composite z-score of "C=CCNC(=O)[C@@H]1[C@H]2C(=O)O[C@H](c3ccccc3)[C@H](c3ccccc3)N2[C@H](c2ccc(O)cc2)[C@@]12C(=O)Nc1ccc(C#CC3=CCCCC3)cc12"
1.69

Query (molecule): "O=C1O[C@H](c2ccccc2)[C@H](c2ccccc2)N2[C@H]1[C@@H](C(=O)O)[C@]1(C(=O)Nc3ccc(C#CC4(O)CCCCCC4)cc31)[C@H]2c1ccccc1OCCO" ; field requested: composite z-score
1.27

###

Assignment: determine reported composite z-score for the given molecules.
- assay.notes: small-molecule binders of probe aLefty1, primary screen, biochemical, small-molecule microarray, 635/667 nm fluorescence (AID 1153);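 note: score merges spot fluorescence with signal-to-noise ratio from the scanned slide images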
- measurement.setup: higher = more signal
Write the value as a bare number.

What value of composite z-score has been reported for the following molecule? "C=CCNC(=O)[C@H]1[C@@H]2C(=O)O[C@@H](c3ccccc3)[C@@H](c3ccccc3)N2[C@@H](c2ccc(OCCO)cc2)[C@]12C(=O)N(C(=O)OCCOC)c1ccc(C#CCNC(N)=O)cc12"
0.298

Which composite z-score is reported for this molecule? O=C1OCCC/C=C\[C@H]2OC34C=CCN(Cc5ccccc5)C(=O)[C@H]3N(CCO)C(=O)[C@@H]4C12 (stereo not given in full)
-0.0536

Tell me the measured composite z-score of "CO[C@H]1O[C@H](CO)[C@@H](OC(=O)CCc2ccccc2)[C@@H]2OC(=O)[C@@H](Cc3ccc4ccccc4c3)C/C=C/C[C@H](Cc3ccc4ccccc4c3)C(=O)O[C@@H]12" , please.
-0.949

Sample "OCCCc1cc[n+](Cc2cc3c(cc2Br)OCO3)cc1" — what was its composite z-score?
0.0191

// lookup composite z-score for "COCCOC(=O)N1C(=O)[C@@]2(c3cc(C#CCNC(N)=O)ccc31)[C@H](C(=O)N1CCN(c3ncccn3)CC1)[C@H]1C(=O)O[C@H](c3ccccc3)[C@H](c3ccccc3)N1[C@@H]2c1ccc(O)cc1"
-0.514

For the molecule "CC(C)C[C@@H]1NC(=O)[C@@H]2C[C@H](C(=O)NCCCCCNC(=O)CS)[C@H](c3ccc(O)cc3)N2C1=O" , what composite z-score is on record?
0.165

Could you tell me which composite z-score is on file for "COc1cccc(C)c1NC(=O)O[C@H]1[C@H](OC(=O)Nc2ccccc2)[C@@H](OC(=O)Nc2ccccc2)[C@@H](OC)O[C@@H]1CO" ?
0.26

Item "CC(C)(C)OC(=O)CC[C@@]1(C(N)=O)N=C(c2ccc(OCCCO)cc2)O[C@@H]1c1ccccc1CN=[N+]=[N-]" has what recorded composite z-score?
0.997

# input molecule: "CCCCC=C[C@@H](NC(=O)C(C)(C)C)c1ccccc1" ; wanted: its composite z-score
0.181

Reported composite z-score for COC(=O)C1(CC(C)C)C=C2C(=C(C)C(=O)C2C)CN1 (stereo not given) : what is it?
1.59

Quick check: composite z-score of CC(C)c1ccc(NN2C(C(O)C3CCCCC3)C=CC3C(=O)N(c4ccccc4)C(=O)C32)cc1 (stereo not given) ?
0.368

// returns reported composite z-score for input "O=C(NCCN1CCOCC1)[C@@H]1c2ccccc2C(=O)N(CC23CC4CC(CC(C4)C2)C3)[C@H]1c1ccc(CO)cc1"
0.409

Entry "O=C1O[C@H](c2ccccc2)[C@H](c2ccccc2)N2[C@H]1[C@@H](C(=O)Nc1nc3ccccc3s1)[C@]1(C(=O)Nc3ccccc31)[C@H]2c1ccccc1OCCO" : reported composite z-score = ?
0.347

What value of measured composite z-score is listed for CCOC(=O)C1=CCC(c2ccncc2)N(S(=O)(=O)c2ccc(C)cc2)C1 (stereo not given) ?
0.13

Entry under review: "COC(=O)[C@@]1(Cc2ccc(F)cc2)[C@H]2c3cc(C(=O)N4CCCC4)n(CCc4c[nH]c5cc(F)ccc45)c3C[C@H]2CN1C(=O)c1ccccc1" . Reported composite z-score?
0.429

State the recorded composite z-score for this entry: "COC(=O)c1c2oc(c1C(=O)OC)C(=O)N[C@H](Cc1ccccc1)Cn1cc(nn1)C1(CCCCC1)NC(=O)N[C@H](CO)CC2"
-0.104

Reported composite z-score for "COC(=O)[C@@]1(Cc2ccc(F)cc2)[C@H]2c3cc(C(=O)N4CCCC4)n(Cc4ccc(OC(F)(F)F)cc4)c3C[C@H]2CN1C(=O)c1ccccc1" : what is it?
-0.0141

Would you kindly share the measured composite z-score for "CC(C)[Si]1(C(C)C)OCc2cc(-c3ccc(-c4ccc(Cl)c(Cl)c4)o3)nc(-c3ccc(Oc4ccccc4)cc3)c21" ?
-0.21

Tell me the measured composite z-score of "Cc1ccc(S(=O)(=O)N2[C@@H](c3ccccc3)C(C(=O)O)=C[C@H]2C(C)(C)C)cc1" , please.
-0.0318

Fill blank: measured composite z-score of the molecule CC(C)N1CC=CC23O[C@@H]4/C=C\CCCOC(=O)C4[C@H]2C(=O)N(C(C)CO)[C@@H]3C1=O (stereo not given in full) is ____.
-0.195

Quick one: composite z-score of CCOC(=O)C1=CCC(c2cccn2C(=O)OC(C)(C)C)N(S(=O)(=O)c2ccc(C)cc2)C1 (stereo not given) ?
0.245

Value lookup for composite z-score; key = O=C1NC(=O)C2C1C=CC(C(O)C1CCCCC1)N2Nc1ccccn1 (stereo not given)
-0.0779

Item O=C1NC(=O)C2C1C=CC(C(O)c1ccc(F)cc1)N2Nc1ccc(Cl)cc1Cl (stereo not given) has what recorded composite z-score?
-0.017

Name the recorded composite z-score for CCCCN1CC=CC23O[C@@H]4/C=C\CCC(C)OC(=O)C4[C@H]2C(=O)N(CCO)[C@@H]3C1=O (stereo not given in full) .
-0.386

Param item = "C=C(COC)/C(=C/C[C@@H](OC(C)=O)c1cccc(OCCO)c1)c1cnc2ccccc2c1" ; retrieve measured composite z-score.
0.106

Reported composite z-score for N#Cc1ccc(NN2C(C(O)c3ccc(B(O)O)cc3)C=CC3CN(c4ccccc4)C(=O)C32)cc1 (stereo not given) : what is it?
0.521

Which composite z-score is reported for this molecule? "COCCCNC(=O)[C@]1(Cc2ccccc2N=[N+]=[N-])N=C(c2ccc(OCCCO)cc2)O[C@@H]1c1ccccc1"
0.749

Dear colleague, I am looking for the recorded composite z-score of the following molecule: "COc1ccc(CCNC(=O)[C@@]2(c3ccc([N+](=O)[O-])cc3)CC(=O)N(C3CCCCC3)[C@@H]2c2ccc(CO)cc2I)cc1"
0.0341

State the recorded composite z-score for this entry: "Cc1ccc(S[C@]2(C(=O)NC(C)C)CC(=O)N(Cc3ccccc3)[C@@H]2c2ccc(CO)cc2)cc1"
0.082

Quick check: composite z-score of "CC[C@@H]1C=C(C(=O)O)[C@H](c2cccc(Cl)c2)N1S(=O)(=O)c1ccc(C)cc1" ?
0.0043

Reference source: PubChem BioAssay
